target: KRAS-G12D (Homo sapiens, UniProt P01116, G12D); assay: SOS-catalyzed nucleotide exchange assay (Procedure A, TR-FRET), KRAS-G12D; format: biochemical; details: nucleotide exchange, read-out: KRAS G12D GNE IC50
Sequence (P01116 with tags, fused parts or gaps isoform P01116-2 G12D): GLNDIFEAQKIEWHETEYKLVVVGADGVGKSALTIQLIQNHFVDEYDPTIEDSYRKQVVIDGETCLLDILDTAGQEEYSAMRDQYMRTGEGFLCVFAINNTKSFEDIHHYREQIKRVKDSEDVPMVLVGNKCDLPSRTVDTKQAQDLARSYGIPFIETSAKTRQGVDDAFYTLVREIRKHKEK
pIC50: −log10 of the molar value.
Experimental Endpoint: pIC50

| Compound | Target System | Result |
| --- | --- | --- |
| CN1CCC[C@H]1COc1nc(N2CCOC[C@@](C)(O)C2)c2c(n1)sc1c(-c3c(C4CC4)c(C(F)(F)F)cc4[nH]ncc34)nccc12 | KRAS-G12D (Homo sapiens, UniProt P01116, G12D) | 8.23 |
| Cc1cc2[nH]ncc2c(-c2nccc3c4c(N5CCCC6(CC(=O)N6)C5)nc(OC[C@@]56CCCN5C[C@H](F)C6)nc4n(C)c23)c1C(F)(F)F (single isomer, unassigned) | KRAS-G12D (Homo sapiens, UniProt P01116, G12D) | 7.23 |
| C[C@@H]1CCN1C[C@@]1(COc2nc(N3CCOC[C@@](C)(O)C3)c3c(n2)sc2c(-c4c(C5(F)CC5)c(Cl)cc5[nH]ncc45)nccc23)CC1(F)F | KRAS-G12D (Homo sapiens, UniProt P01116, G12D) | 7.77 |

----------
target: KRAS-WT (Homo sapiens, UniProt P01116); experiment: SOS-catalyzed nucleotide exchange assay (Procedure A, TR-FRET), KRAS-WT; assay type: biochemical; settings: nucleotide exchange, read-out: KRAS WT GNE IC50
Sequence (P01116 with tags, fused parts or gaps isoform P01116-2): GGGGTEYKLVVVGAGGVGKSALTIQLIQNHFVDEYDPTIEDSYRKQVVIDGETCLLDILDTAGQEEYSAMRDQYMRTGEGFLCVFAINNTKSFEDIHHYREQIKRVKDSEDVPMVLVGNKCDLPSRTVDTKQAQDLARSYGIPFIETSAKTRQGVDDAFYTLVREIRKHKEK
# IC50 per entry
Experimental Endpoint: IC50

| Input Smiles | Result |
| --- | --- |
| C/C=C1\CCCc2cc3[nH]ncc3c(-c3nccc4c3sc3nc(OC[C@@]56CCCN5C[C@H](F)C6)nc(N5CCOC[C@@](C)(O)C5)c34)c21 | 63.8 nM |
| C[C@@]1(O)COCCN(c2nc(OC[C@]3(CN4CC5(CCCOC5)C4)CC3(F)F)nc3sc4c(-c5c(C6(F)CC6)c(Cl)cc6[nH]ncc56)nccc4c23)C1 | 20.2 nM |
| C[C@@]1(O)COCCN(c2nc(OC[C@]3(CN4C[C@@H]5C[C@H]4CO5)CC3(F)F)nc3sc4c(-c5c(C6(F)CC6)c(Cl)cc6[nH]ncc56)nccc4c23)C1 | 121 nM |
| CO[C@@H]1C[C@@H](COc2nc(N3CCOC[C@@](C)(O)C3)c3c(n2)sc2c(-c4c(C5CC5)c(C(F)(F)F)cc5[nH]ncc45)nccc23)N(C)C1 | 81.1 nM |
| Cc1cc(-c2nccc3c2sc2nc(OC[C@@]45CCCN4C[C@H](F)C5)nc(N4CCOC[C@@](C)(O)C4)c23)c2cn[nH]c2c1 | 3070 nM |
| Cc1cc2[nH]ncc2c(-c2nccc3c2sc2nc(OC[C@@]45CCCN4C[C@H](F)C5)nc(N4CCC[C@]5(CCO5)C4)c23)c1C(F)(F)F | 474 nM |

----------
biological target: KRAS-WT (Homo sapiens, UniProt P01116); experiment: SOS-catalyzed nucleotide exchange assay (Procedure A, TR-FRET), KRAS-WT; format: biochemical; settings: nucleotide exchange, read-out: KRAS WT GNE IC50
pIC50: −log10 of the molar value.
Experimental Endpoint: pIC50

| Molecule | Experimental Endpoint | Result |
| --- | --- | --- |
| Cc1cc2[nH]ncc2c(-c2nccc3c2sc2nc(OC[C@@]45CCCN4C[C@H](F)C5)nc(N4CCOC[C@@](C)(O)C4)c23)c1[C@@H]1C[C@H]1C (atropisomer, axis not shown; (aS)) [Ex-67] | pIC50 | 7.40 |
| Cn1c2nc(OC[C@@]34CCCN3C[C@H](F)C4)nc(N3CCOC[C@@](C)(O)C3)c2c2ccnc(-c3ccc(F)c4sc(N)c(C#N)c34)c21 [Ex-16] | pIC50 | 6.12 |
| C[C@@]1(O)COCCN(c2nc(OC[C@@]34CCCN3C[C@H](F)C4)nc3sc4c(-c5c(-c6ccco6)c(Cl)cc6[nH]ncc56)nccc4c23)C1 [Ex-148] | pIC50 | 7.56 |
| C[C@@H]1CN(C[C@@]2(COc3nc(N4CCOC[C@@](C)(O)C4)c4c(n3)sc3c(-c5c(C6(F)CC6)c(Cl)cc6[nH]ncc56)nccc34)CC2(F)F)CCO1 [Ex-243] | pIC50 | 6.01 |
| Cc1cc2[nH]ncc2c(-c2nccc3c2sc2nc(OC[C@@]45CCCN4C[C@H](F)C5)nc(NC4CCC4)c23)c1C(F)(F)F [Ex-191] | pIC50 | 4.95 |
| Cc1cc2[nH]ncc2c(-c2nccc3c2sc2nc(OC[C@@]45CCCN4C[C@H](F)C5)nc(N4CCOC[C@@](C)(O)C4)c23)c1C1CC1(F)F (stereo partly drawn) [Ex-63] | pIC50 | 7.26 |
| CC[C@@H]1CCCc2cc3[nH]ncc3c(-c3nccc4c3sc3nc(OC[C@@]56CCCN5C[C@H](F)C6)nc(N5CCOC[C@@](C)(O)C5)c34)c21 [Ex-176] | pIC50 | 7.70 |
| Cc1cc2c3c(N4CCOC[C@@](C)(O)C4)nc(OC[C@@]45CCCN4C[C@H](F)C5)nc3n(C)c2c(-c2c(C(F)(F)F)c(C)cc3[nH]ncc23)n1 (single isomer, unassigned) [Ex-28] | pIC50 | 6.01 |
| CC1(O)COCCN(c2nc(OCC34CCCN3CC(F)C4)nc3sc4c(-c5c(C6CC6)c(F)cc6[nH]ncc56)nccc4c23)C1 (stereo not drawn) [Ex-47] | pIC50 | 6.99 |
| C#Cc1c(F)ccc2cc(O)cc(-c3nccc4c3sc3nc(OC[C@@]56CCCN5C[C@H](F)C6)nc(N5CCOC[C@@](C)(O)C5)c34)c12 [Ex-135] | pIC50 | 9.12 |
| C=C(C)c1c(C)cc2[nH]ncc2c1-c1nncc2c1sc1nc(OC[C@@]34CCCN3C[C@H](F)C4)nc(N3CCOC[C@@](C)(O)C3)c12 [Ex-278] | pIC50 | 7.34 |
| Cc1cc2[nH]ncc2c(-c2nc(-c3ccoc3)cc3c2sc2nc(OC[C@@]45CCCN4C[C@H](F)C5)nc(N4CCOC[C@@](C)(O)C4)c23)c1C(F)(F)F [Ex-29] | pIC50 | 6.07 |

----------
# IC50 per entry
biological target: KRAS-G12D (Homo sapiens, UniProt P01116, G12D); assay: SOS-catalyzed nucleotide exchange assay (Procedure A, TR-FRET), KRAS-G12D; type: biochemical; conditions: nucleotide exchange, read-out: KRAS G12D GNE IC50
Experimental Endpoint: IC50 (nM)

| Molecule | Result |
| --- | --- |
| Cc1cc2[nH]ncc2c(-c2nccc3c2sc2nc(OC[C@@]45CCCN4C[C@H](F)C5)nc(N4CCOC[C@@](C)(O)C4)c23)c1C(F)F [Ex-129] | 56.2 |
| CO[C@]12CC[C@H]1CN(C[C@@]1(COc3nc(N4CCOC[C@@](C)(O)C4)c4c(n3)sc3c(-c5c(C6(F)CC6)c(Cl)cc6[nH]ncc56)nccc34)CC1(F)F)C2 [Ex-260] | 41.6 |
| CC1(O)COCCN(c2nc(OCC34CCCN3CC(F)C4)nc3sc4c(-c5c(C6CC6)c(F)cc6[nH]ncc56)nccc4c23)C1 (stereo not drawn) [Ex-47] | 32 |
| CN1CCC[C@@H]1COc1nc(N2CCOC[C@@](C)(O)C2)c2c(n1)sc1c(-c3c(C4CC4)c(C(F)(F)F)cc4[nH]ncc34)nccc12 [Ex-81] | 85.6 |
| C[C@@]1(O)COCCN(c2nc(OC[C@@]34CCCN3C[C@H](F)C4)nc3sc4c(-c5c6c(cc7[nH]ncc57)CCC6C(F)(F)F)nccc4c23)C1 (stereo partly drawn) [Ex-92] | 226 |
| C#Cc1cccc2cccc(-c3nccc4c3sc3nc(OC[C@@]56CCCN5C[C@H](F)C6)nc(N5CCOC[C@@](C)(O)C5)c34)c12 [Ex-127] | 103 |

----------
molecular target: KRAS-G12D (Homo sapiens, UniProt P01116, G12D); experiment: SOS-catalyzed nucleotide exchange assay (Procedure A, TR-FRET), KRAS-G12D; type: biochemical; settings: nucleotide exchange, read-out: KRAS G12D GNE IC50
pIC50: −log10 of the molar value.
Short version: pIC50 at least 8 is condition met, less is condition not met.

| Molecule | Assigned Label |
| --- | --- |
| COC1(C)CN(C[C@@]2(COc3nc(N4CCOC[C@@](C)(O)C4)c4c(n3)sc3c(-c5c(C6(F)CC6)c(Cl)cc6[nH]ncc56)nccc34)CC2(F)F)C1 [Ex-240] | condition met |
| CCC1c2c(cc3[nH]ncc3c2-c2nccc3c2sc2nc(OC[C@@]45CCCN4C/C(=C\F)C5)nc(N4CCOC[C@@](C)(O)C4)c23)CC1(F)F (single isomer, unassigned) [Ex-109] | condition met |
| C#C[C@@H]1CCCc2cc3[nH]ncc3c(-c3nccc4c3sc3nc(OC[C@@]56CCCN5C[C@H](F)C6)nc(N5CCOC[C@@](C)(O)C5)c34)c21 [Ex-175] | condition not met |
